biological target: human H1 receptor (Homo sapiens); construct: expressed in transfected cells; assay: Histamine H1 functional antagonist assay: determination of functional pKi values (FLIPR); assay type: cell-based; conditions: CHO cells expressing human H1 receptor, histamine at EC80, read-out: average pKi (pKb) at H1 (converted)
parameter measured: Ki

Example entries begin here.
CCCCc1cc(O[C@@H]2CCN(CCCC(=O)NC(C)(C)C)C2)c2ncccc2c1 [Example 37] :: < 10 nM
CCCCc1cc(OC2CCN(C[C@H]3CC[C@H](C(=O)N4CCOCC4)CC3)CC2)c2ncccc2c1 [Example 63] :: < 100 nM
CCCCc1cc(OC2CCN(CCCCC(=O)N(CC)CC)CC2)c2ncccc2c1 [Example 27] :: < 10 nM
CCCCc1cc(OC2CCN(C[C@H]3CC[C@H](C(=O)N4CCCCC4)CC3)CC2)c2ncccc2c1 [Example 44] :: < 10 nM
CCCCc1cc(OC2CCN(C[C@H]3CC[C@H](C(=O)NCCCOC)CC3)CC2)c2ncccc2c1 [Example 47] :: < 10 nM

Qu. Tell us which Ki value is on record for CCCCc1cc(OC2CCN(CCNC(=O)C(C)C)CC2)c2ncccc2c1 [Example 71]
Ans. < 10 nM

Qu. Assign Ki to the following record: CCCCc1cc(OC2CCN(CCCCNC(=O)C(C)C)CC2)c2ncccc2c1 [Example 66]
Ans. < 100 nM

Qu. Dear colleague, please send me the reported Ki for CCCCc1cc(OC2CCN(CCCCCNC(=O)C3CCCCC3)CC2)c2ncccc2c1 [Example 78] when you can.
Ans. < 10 nM

Qu. Supply Ki value. Item: CCCCCCc1cc(OC2CCN(C[C@H]3CC[C@H](C(=O)NCc4ccc(C)cc4)CC3)CC2)c2ncccc2c1 [Example 49]
Ans. < 100 nM

----------
molecular target: human H1 receptor (Homo sapiens, UniProt P35367); construct: expressed in transfected cells; assay: Histamine H1 functional antagonist assay: determination of functional pKi values (FLIPR); assay type: cell-based; conditions: CHO cells expressing human H1 receptor, histamine at EC80, read-out: average pKi (pKb) at H1 (converted)
Sequence (P35367 whole entry): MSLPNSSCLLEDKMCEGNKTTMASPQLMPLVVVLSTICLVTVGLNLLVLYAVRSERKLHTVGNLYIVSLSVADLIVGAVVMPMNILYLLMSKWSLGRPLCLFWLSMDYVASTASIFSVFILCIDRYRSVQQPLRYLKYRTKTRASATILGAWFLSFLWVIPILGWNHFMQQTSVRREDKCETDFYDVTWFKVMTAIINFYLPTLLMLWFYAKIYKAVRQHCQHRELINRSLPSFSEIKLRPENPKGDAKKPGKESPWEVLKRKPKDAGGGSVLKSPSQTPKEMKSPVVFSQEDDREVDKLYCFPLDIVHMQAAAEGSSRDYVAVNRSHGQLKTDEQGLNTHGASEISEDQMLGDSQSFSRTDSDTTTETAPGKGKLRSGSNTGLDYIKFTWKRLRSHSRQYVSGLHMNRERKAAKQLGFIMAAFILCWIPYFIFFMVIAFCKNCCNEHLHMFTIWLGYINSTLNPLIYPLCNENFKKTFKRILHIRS
Measured Ki values are reported for all entries that follow.

CCCCc1cc(OC2CCN(CCCNC(=O)CCC)CC2)c2ncccc2c1 :: < 0.01 µM
CCCCCCc1cc(OC2CCN(C[C@H]3CC[C@H](C(=O)NCCC(C)C)CC3)CC2)c2ncccc2c1 :: < 0.1 µM

Qu. Please report the measured Ki for CCCCc1cc(OC2CCN(CCCNC(=O)C(C)C)CC2)c2ncccc2c1
Ans. < 0.01 µM

Qu. For the compound CCCCc1cc(OC2CCN(CCNC(=O)CC)CC2)c2ncccc2c1 , report Ki.
Ans. < 0.01 µM

Qu. For the compound CCCCc1cc(OC2CCN(CC3CCCNC3=O)CC2)c2ncccc2c1 (stereo not shown) , report Ki.
Ans. < 0.01 µM

Qu. Read off the recorded Ki for CCCCc1cc(O[C@@H]2CCN(CCC(=O)N3CCCCC3)C2)c2ncccc2c1
Ans. < 0.01 µM

Qu. Read the entry CCCCc1cc(OC2CCN(CC3CCN(C(C)=O)CC3)CC2)c2ncccc2c1 and write its reported Ki.
Ans. < 0.1 µM

Qu. Give Ki for the following compound: CCCCc1cc(OC2CCN(CCC(=O)NCCCOC)CC2)c2ncccc2c1
Ans. < 0.01 µM

----------
Ki listing for selected compounds.
molecular target: human H1 receptor (Homo sapiens, UniProt P35367); construct: expressed in transfected cells; test: Histamine H1 functional antagonist assay: determination of functional pKi values (FLIPR); assay type: cell-based; conditions: CHO cells expressing human H1 receptor, histamine at EC80, read-out: average pKi (pKb) at H1 (converted)

CCCCc1cc(OC2CCN(CCCC(=O)NCC)CC2)c2ncccc2c1 [Example 20] :: < 10 nM

Qu. Specify reported Ki for the compound shown: CCCCc1cc(OC2CCN(C[C@H]3CC[C@H](C(=O)NCC(C)(C)C)CC3)CC2)c2ncccc2c1 [Example 46]
Ans. < 100 nM

Qu. Please report Ki for the following compound: CCCCc1cc(OC2CCN(CCCCNC(=O)CCOC)CC2)c2ncccc2c1 [Example 85]
Ans. < 10 nM

Qu. Assign Ki to the following record: CCCCCCc1cc(OC2CCN(C[C@H]3CC[C@H](C(=O)N4CCOCC4)CC3)CC2)c2ncccc2c1 [Example 57]
Ans. < 100 nM

Qu. Answer with reported Ki of CCCCCCc1cc(OC2CCN(C[C@H]3CC[C@H](C(=O)NCCC)CC3)CC2)c2ncccc2c1 [Example 55]
Ans. < 100 nM

Qu. Provide one value: measured Ki of CCCCc1cc(OC2CCN(CCCCC(=O)NCCC)CC2)c2ncccc2c1 [Example 28]
Ans. < 10 nM

Qu. Input CCCCCc1cc(OC2CCN(CCCC(=O)N(CC)CC)CC2)c2ncccc2c1 [Example 89] , output reported Ki.
Ans. < 100 nM

Qu. Query Ki for CCCCc1cc(OC2CCN(CCCCC(=O)N3CCCCC3)CC2)c2ncccc2c1 [Example 31]
Ans. < 10 nM

Qu. Annotate the compound CCCCc1cc(OC2CCN(CC(=O)N3CCCCC3)CC2)c2ncccc2c1 [Example 13] with its measured Ki.
Ans. < 100 nM

Qu. Read the entry CCCCc1cc(OC2CCN(CCC(=O)NC(C)C)CC2)c2ncccc2c1 [Example 19] and write its reported Ki.
Ans. < 10 nM

Qu. Read off the recorded Ki for CCCCc1cc(O[C@@H]2CCN(CCC(=O)NC(C)(C)C)C2)c2ncccc2c1 [Example 36]
Ans. < 10 nM
